Taken from patent US8722580B2.

// values below are reported Root growth-promoting activity (root growth rate)
- System: Arabidopsis thaliana
- run_description: Root growth-promoting activity test (Example 9)
- Type: in vivo
- measurement_parameters: test final concentration 10 ppm (concentration with highest root growth rate); main root length vs control section, 22° C., 10 days
readout_label: Root growth-promoting activity (root growth rate) (%)

INSERT INTO assay_data (line_notation, result_unit, value_measured) VALUES
  ('CC(C)=CCNc1nc(-c2ccccc2)c2cc(Cl)ccc2n1', '%', 121.3),
  ('COc1ccc2nc(NCCCO)nc(-c3ccccc3)c2c1', '%', 162.1),
  ('OCCCNc1nc(-c2ccccc2)c2ccc(Cl)cc2n1', '%', 163.6);

----------
- Tested on: Arabidopsis thaliana
- run_description: Root growth-promoting activity test (Example 22)
- Assay type: in vivo
- measurement_parameters: test final concentration 5 ppm (highest root growth rate); main root length vs control section, 22° C., 10 days
Property: Root growth-promoting activity (root growth rate); scope: individual compounds
readout_label: Root growth-promoting activity (root growth rate) (%)

INSERT INTO measurements (compound, tested_on, result_unit, value_measured) VALUES
  ('OCCCNc1nc(-c2ccccc2)c2cccc(Cl)c2n1', 'Arabidopsis thaliana', '%', 143.9),
  ('COCCCNc1nc(-c2ccccc2)c2cc(Cl)ccc2n1', 'Arabidopsis thaliana', '%', 141.9),
  ('Clc1ccc2nc(NCC3CCCO3)nc(-c3ccccc3)c2c1 (centres unmarked)', 'Arabidopsis thaliana', '%', 138.5),
  ('OCC(O)CNc1nc(-c2ccccc2)c2cc(Cl)ccc2n1 (centres unmarked)', 'Arabidopsis thaliana', '%', 134.5),
  ('Clc1ccc2nc(NCc3ccco3)nc(-c3ccccc3)c2c1', 'Arabidopsis thaliana', '%', 155.3);

----------
melting point overview
readout_label: melting point

INSERT INTO assay_data (line_notation, readout_label, value_measured) VALUES
  ('SCCNc1nc(-c2ccccc2)c2cc(Cl)ccc2n1', 'melting point', '165.9 °C'),
  ('Clc1ccc2nc(Cl)nc(-c3ccccc3)c2c1', 'melting point', '166.2 °C'),
  ('Clc1ccc2nc(NCCSSCCNc3nc(-c4ccccc4)c4cc(Cl)ccc4n3)nc(-c3ccccc3)c2c1', 'melting point', '159.2 °C'),
  ('CCOC(=O)CNc1nc(-c2ccccc2)c2cc(Cl)ccc2n1', 'melting point', '146.1 °C'),
  ('CONc1nc(-c2ccccc2)c2cc(Cl)ccc2n1', 'melting point', '173.9 °C'),
  ('OCCNc1nc(-c2ccccc2)c2cc(Cl)ccc2n1', 'melting point', '137.9 °C'),
  ('Clc1nc(-c2ccccc2)c2cccc(Cl)c2n1', 'melting point', '154.4 °C'),
  ('OCCSc1nc(-c2ccccc2)c2cc(Cl)ccc2n1', 'melting point', '124.4 °C'),
  ('Nc1nc(-c2ccccc2)c2cc(Cl)cc(Cl)c2n1', 'melting point', '212.7 °C'),
  ('Clc1ccc2nc(NCc3ccco3)nc(-c3ccccc3)c2c1', 'melting point', '142 °C'),
  ('Clc1cc(Cl)c2nc(Cl)nc(-c3ccccc3)c2c1', 'melting point', '160.3 °C'),
  ('CN(N)c1nc(-c2ccccc2)c2cc(Cl)ccc2n1', 'melting point', '155.9 °C'),
  ('CC(=O)SCCNc1nc(-c2ccccc2)c2cc(Cl)ccc2n1', 'melting point', '128.9 °C'),
  ('O=CNc1nc(-c2ccccc2)c2cc(Cl)ccc2n1', 'melting point', '252.1 °C');
